system: SW-620 colon; test: NCI tumour cell line growth inhibition, 48 h
Below, each of the molecules is paired with its reported TGI value.

Worked set:
Cc1cc2nc(CC(C(F)(F)F)C(F)(F)F)oc2cc1C : 2.83 µM
COc1cc(/C=C/C2=NN(c3cccc(S(=O)(=O)O)c3)C3(C2)SCC(=O)N3c2nc3ccccc3s2)cc(OC)c1OC (centres undefined) : > 100 µM
CC(=O)OC12OC(C)(C3C(=O)N(c4ccccc4)C(=O)C31)N(c1ccccc1)C2=O (centres undefined) : > 100 µM
Cc1cc(=O)[nH]c(NNC(C#N)c2ccc(N(C)C)cc2)n1 (centres undefined) : > 100 µM
COC(=O)[C@@H](NC(=O)c1ccc(CNC(=O)/C(C)=C/c2ccccc2)cc1)C(C)C : > 100 µM
CC(=O)Nc1ccc(Cc2ccc3[nH]c(=O)cc(C)c3c2)cc1 : > 100 µM

Lookup: TGI / SW-620 colon / CCOC(=O)CCC(C(=O)OCC)n1nnc2ccc(Nc3c(C)[n+]([O-])c4cc(F)c(OCC)cc4[n+]3[O-])cc21 (centres undefined)
> 100 µM

Lookup: TGI / SW-620 colon / COc1cc(C2c3cc4c(cc3OC(NNc3ccccc3)C2C)OCO4)cc(OC)c1O (centres undefined)
21 µM

Lookup: TGI / SW-620 colon / CCOC(=O)C1=C(O)c2ccc(OC)cc2C(=O)C1=O
> 100 µM

---

Below, each of the compounds is paired with its reported TGI value.
test system: SNB-19 CNS; assay: NCI tumour cell line growth inhibition, 48 h

Worked set:
O=C(Nc1nc(-c2ccccc2Cl)cs1)c1cc(-c2ccc(Cl)cc2)nc2ccc(Cl)cc12 : 67.2 µM
O=C1Nc2c(ccc(Cl)c2Cl)/C1=C\c1cc(C(F)(F)F)cc(C(F)(F)F)c1 : 19.3 µM

Which TGI value is on record for CC1=C(C(=O)NCCCN(CCO)CCO)CC(C(=O)NCCCN(CCO)CCO)=C(C)N1 ?
> 100 µM

Which TGI value is on record for CSCC(COC(C)=O)(CSC)c1ccncc1 ?
> 100 µM

Which TGI value is on record for O=[N+]([O-])c1ccc2c(N=Nc3ccc4ccccc4c3O)c(O)cc(S(=O)(=O)O)c2c1 ?
> 83.2 µM

Which TGI value is on record for C=CNC(=S)n1nc(-c2ccccc2NC(=O)C(F)(F)F)c(=O)n(C(=S)NC=C)c1=S ?
> 100 µM

Which TGI value is on record for Cc1nc(-n2nc(-c3ccccc3)cc2-c2ccccc2)sc1C(/C=C/c1ccc([N+](=O)[O-])cc1)=N/NC(N)=S ?
> 100 µM

Which TGI value is on record for Nc1nc(N)c2nc(CNc3ccc(C(=O)NC(CCNC(=O)c4ccccc4C(=O)O)C(=O)O)cc3)cnc2n1 (stereo not drawn) ?
> 100 µM

Which TGI value is on record for COc1ccc2c(c1)CC1N(C)CCC13CCCCC23 (stereo not drawn) ?
> 100 µM

Which TGI value is on record for O=C(NCCC1CN(S(=O)(=O)C(F)(F)F)c2ccccc21)OCc1ccccc1 (stereo not drawn) ?
> 100 µM

Which TGI value is on record for CC(=O)Nc1ccc(Cc2ccc3[nH]c(=O)cc(C)c3c2)cc1 ?
> 100 µM

Which TGI value is on record for CC(=O)OC12OC(C)(C3C(=O)N(c4ccccc4)C(=O)C31)N(c1ccccc1)C2=O (stereo not drawn) ?
> 100 µM

Which TGI value is on record for CCN(CC)CC(O)c1cc(-c2ccc(Cl)cc2)nc2cc(Cl)ccc12 (stereo not drawn) ?
16 µM

Which TGI value is on record for COc1cccc(/C=N/NC(=O)CN(C)C)c1O ?
> 100 µM

Which TGI value is on record for NNC(=S)NN/C=C(\C=Nc1ccccc1)[N+](=O)[O-] ?
> 100 µM

Which TGI value is on record for O=c1[nH]c(-c2ccc([N+](=O)[O-])cc2)nc2ccc(Cl)cc12 ?
> 100 µM

Which TGI value is on record for O=C(O)c1c[nH]c2c(ccc3[nH]cc(C(=O)O)c(=O)c32)c1=O ?
> 100 µM

Which TGI value is on record for O=C1C=CC(=O)[C@H]2C3C=CC(C4C3C3(Cl)C(Cl)=C(Cl)[C@]4(Cl)C3(Cl)Cl)[C@@H]12 (stereo partly drawn) ?
17 µM

Which TGI value is on record for CCCCC1N=CNc2c1ccc1c2[nH]c2ccccc21 (stereo not drawn) ?
24.9 µM

Which TGI value is on record for Cc1ccnc(NC(c2ccccc2)c2ccc3cccnc3c2O)c1 (stereo not drawn) ?
> 100 µM

Which TGI value is on record for O=[P+](O)c1cccnc1 ?
> 100 µM

Which TGI value is on record for CN(C)CCOc1ccc2[nH]c(C(=O)N3CC(CCl)c4ccc(N)cc43)cc2c1 (stereo not drawn) ?
21.8 µM

---

tested on: A549 NSCLC; test: NCI tumour cell line growth inhibition, 48 h
endpoint: TGI (µM)
Give just the numeric value; µM need not be written.

COc1cccc2c1C(=O)c1c(O)c3c(c(O)c1C2=O)CC(O)(C(C)=O)CC3O (centres undefined) : 23.4

Which TGI value is on record for C[C@]12CCC(=O)C=C1CC[C@@H]1C2CC[C@@]2(C)C1CC[C@@H]2OC(=O)C12OC1CCC2=O (some centres undefined) ?
54.6

---

tested on: CAKI-1 renal; assay: NCI tumour cell line growth inhibition, 48 h
endpoint: GI50

O=C(Nc1ccc(Cl)cc1)c1cc2ccccc2cc1OP(=O)(O)O : 1.77 µM
CCOC(=O)Nc1cc(-c2ccc(C)c(NS(C)(=O)=O)c2)nn2c(C)nnc12 : 0.537 µM
O=C(NC(Cc1ccccc1)C(=O)CCl)OCc1ccccc1 (stereo not given) : 7.52 µM
CNC(=O)c1cc(Oc2cccc3nc(NC(=O)Nc4ccc(F)cc4F)ccc23)ccn1 : 1.61 µM
CNC(=O)c1cc(Oc2ccc3nc(NC(=O)Nc4cc(C(F)(F)F)cc(C(F)(F)F)c4)sc3c2)ccn1 : 1.15 µM
COc1cc(OC)c(/C=C/C(=O)c2c(O)cc(OC)c(C3CCN(C)CC3)c2OC)c(OC)c1 : 1.51 µM
Cc1ccnc(NC(c2ccccc2)c2ccc3cccnc3c2O)c1 (stereo not given) : 1.68 µM
O=[N+]([O-])c1cccc([I+]c2ccccc2)c1 : 3.42 µM

Which GI50 value is on record for CCCCCCn1c2c(c3c(O)cccc31)C(=O)c1ccccc1-2 ?
26.9 µM

Which GI50 value is on record for O=C1c2ccccc2-c2ccccc2C1(Cl)Cl ?
1.17 µM

---

test system: CAKI-1 renal; assay: NCI tumour cell line growth inhibition, 48 h
Below, each of the compounds is paired with its reported TGI value.

Worked set:
O=C1C(=O)N(C23CC4CC(CC(C4)C2)C3)C(=S)N1c1ccccc1 : > 100 µM
CC(O)c1ccc(C(O)/C(=N\NC(=O)c2ccncc2)c2nc3ccc([N+](=O)[O-])cc3[nH]c2=O)cc1 (stereo not given) : > 100 µM
Nc1nc(-c2ccc3ccccc3c2)cc(-c2cc(-c3ccc4ccccc4c3)nc(N)n2)n1 : > 100 µM
COc1cc(-c2ccc(=O)oc2C#Cc2ccccc2)cc(OC)c1OC : > 100 µM
O=C(c1cccnc1)N1N=C(c2ccc3c(c2)OCO3)CC1(O)c1cc(F)c(Cl)cc1Cl (stereo not given) : > 100 µM

Which TGI value is on record for CCCCC1N=CNc2c1ccc1c2[nH]c2ccccc21 (stereo not given) ?
9.16 µM

Which TGI value is on record for O=C1CCCCCCCCCCOC(=O)CCCCCCCCCCO1 ?
> 100 µM

Which TGI value is on record for O=C1C(Cl)C(c2ccc([N+](=O)[O-])cc2)N1n1cnc2ccccc2c1=O (stereo not given) ?
> 100 µM

Which TGI value is on record for O=C1c2ccccc2C(=O)c2c(NCC3CO3)cccc21 (stereo not given) ?
77.3 µM

Which TGI value is on record for O=C(O)C1C2CCC(O2)C1C(=O)NCc1cccnc1 (stereo not given) ?
> 100 µM

---

test system: RPMI-8226 leukemia; assay: NCI tumour cell line growth inhibition, 48 h
Below, each of the molecules is paired with its reported TGI value.

NCCCCCCCCCn1c2c(c3ccccc3c1=O)C(=O)c1ccccc1-2 : 30.8 µM

Lookup: TGI / RPMI-8226 leukemia / O=C(CSc1nnc(-c2ccc(N=Cc3ccc(Cl)cc3)cc2)o1)Nc1cccc([N+](=O)[O-])c1
> 100 µM

Lookup: TGI / RPMI-8226 leukemia / C=CCCCC(O)c1ccc(C(O)c2cnc3ccccc3c2)o1 (stereo unspecified)
72.2 µM

Lookup: TGI / RPMI-8226 leukemia / CC(C)(/C=N/O)/[N+]([O-])=C/c1ccccc1
> 100 µM

Lookup: TGI / RPMI-8226 leukemia / Cc1cc(=O)[nH]c(NNC(C#N)c2ccc(N(C)C)cc2)n1 (stereo unspecified)
> 100 µM

Lookup: TGI / RPMI-8226 leukemia / O=C(Nc1ccc(Cl)cc1)c1cc2ccccc2cc1OP(=O)(O)O
6.02 µM

Lookup: TGI / RPMI-8226 leukemia / [Au+].c1c[n-]cn1.c1ccc([PH+](c2ccccc2)c2ccccc2)cc1
> 90.8 µM

Lookup: TGI / RPMI-8226 leukemia / O=c1[nH]c(-c2ccc(Cl)cc2)cc2ccsc12
19.1 µM
